- System: H1 or H9 human embryonic stem cells
- Experiment Notes: Activin A bioassay: differentiation of human embryonic stem cells to definitive endoderm, cell number and SOX17 intensity by high content analysis (96-well, four days)
- Assay type: cell-based
- Test Settings: supernatant concentration 10x, assay dilution 1:20; control = R&D Sys Activin A 100 ng/ml on same plate
Returns: string. Value is label 1 if measured Sox 17 Intensity % of control is below 10%, and label 0 if it is greater than or equal to it.

ACTN48: activin A variant peptide, SEQ ID 49 (protein) GLECDGKVNLCCKKQNFVSFKDIGWNDWIIAPSGYHANECSGLCPSHIAGTSGSSLSFHSTVINHYRMRGHSPFANMGACCIPTKLRPMSMLYYDDGQNIIKKDIQNMIVEECGCS: label 0
ACTN51: activin A variant peptide, SEQ ID 52 (protein) GLECDGKVNICCKKQSFGQTKDIGWNDWIIAPSGYHGGGCSGECPSHIAGTSGSSLSFHSTVINHYRMRGHSPFANLKSCCSPTKLRPMSMLYYDDGQNIIKKDIQRMVVEECGCT: label 0

Task item: Please determine if ACTN77: activin A variant peptide, SEQ ID 78 (protein) GLECDGKVNICCKKQMFGKAKDIGWNDWIIAPSGYHGGGCTGECPSHIAGTSGSSLSFHSTVINHYRMRGHSPWANLKSCCSPTKLRPMSMLYYDDGQNIIKKDIQNMVVEECGCT is below 10% in terms of Sox 17 Intensity % of control.
Reply: label 0

Task item: What about this molecule? ACTN61: activin A variant peptide, SEQ ID 62 (protein) GLECDGKVNICCKKQLFGQTKDIGWNDWIIAPSGYHGGSCTGECPSHIAGTSGSSLSFHSTVINHYRMRGHSPNANLKSCCSPTKLRPMSMLYYDDGQNIIKKDIQNMKVEECGCT
Reply: label 1

Task item: What about this molecule? ACTN71: activin A variant peptide, SEQ ID 72 (protein) GLECDGKVNICCKKQSFGQAKDIGWNDWIIAPSGYHGGGCTGECPSHIAGTSGSSLSFHSTVINHYRMRGHSPFANLKSCCSPTKLRPMSMLYYDDGQNIIKKDIQNMKVEECGCT
Reply: label 1

Task item: What about this molecule? ACTN74: activin A variant peptide, SEQ ID 75 (protein) GLECDGKVNICCKKQSFGRAKDIGWNDWIIAPSGYHGGGCTGECPSHIAGTSGSSLSFHSTVINHYRMRGHSPFANLKSCCSPTKLRPMSMLYYDDGQNIIKKDIQGMVVEECGCT
Reply: label 0

Task item: What about this molecule? ACTN18: activin A variant peptide, SEQ ID 19 (protein) GLECDGKVNYCCKKQNFVSFKDIGWNDWIIAPSGYHANKCSGKCPSHIAGTSGSSLSFHSTVINHYRMRGHSPFSDMGACCIPTKLRPMSMLYYDDGQNIIKKDIQNMIVEECGCS
Reply: label 1

Task item: What about this molecule? ACTN62: activin A variant peptide, SEQ ID 63 (protein) GLECDGKVNICCKKQSFGQAKDIGWNDWIIAPSGYHGGGCTGECPSHIAGTSGSSLSFHSTVINHYRMRGHSPWANLKSCCSPTKLRPMSMLYYDDGQNIIKKDIQNMVVEECGCT
Reply: label 1

Task item: What about this molecule? ACTN84: activin A variant peptide, SEQ ID 85 (protein) GLECDGKVNICCKKQSFGQAKDIGWNDWIIAPSGYHGGGCSGECPSHIAGTSGSSLSFHSTVINHYRMRGHSPFANLKSCCSPTKLRPMSMLYYDDGQNIIKKDIQNMVVEECGCT
Reply: label 1

These measurements were taken from patent US20110091971A1.
